Experiment: qHTS for Inhibitors of Plasmodium falciparum (7G8) proliferation (AID 504316); further: nearly all actives have a fitted effect of over 65% in size
Conditions: P. falciparum 7G8 in erythrocytes, SYBR Green DNA, 72 h; series mostly up to 6.7 µM
Excerpt: Plasmodium falciparum is a virulent malarial parasite that kills 1-2 million people worldwide each year. Malaria not only inflicts tremendous suffering and morbidity on the human population, but has dramatically influenced the course of civilization with profound sociological and economic implications (Shah, S. 2010). […] Because mature erythrocytes lack DNA, only Plasmodium-derived DNA is detected. […]
Records with an inconclusive call do not appear. Active and inactive are the calls of the source. The call rests on the fitted dose curve; in most records, active means well fitted inhibition curve with a large enough effect; inconclusive means small, poorly fitted or top-dose-only effect; inactive means flat fitted curve, though single readings scatter.
Log the outcome using a class from active, inactive

Input: Which outcome was entered for the compound COc1ccc([C@]23Cc4cc(OC)c(OC)cc4[C@H](O2)C2=C(CCCC2=O)O3)cc1 in this test?
Output: active

* * *

assay: qHTS for Inhibitors of Plasmodium falciparum (HB3) proliferation (AID 504318); further: nearly all actives have a fitted effect of over 60% in size; conditions: P. falciparum HB3 in erythrocytes, SYBR Green DNA, 72 h; series mostly up to 7.21 µM
Results filed as inconclusive are left out. The source made the active and inactive calls. Calls follow the shape of the dose curve; as a rule, active = well fitted inhibition curve with a large enough effect; inconclusive = small, poorly fitted or top-dose-only effect; inactive = flat fitted curve, though single readings scatter.
Log the outcome using a class from active, inactive

[[record]]
compound_string = "COc1ccc2c(c1)O[C@@H](c1ccc3c(c1)OCO3)[C@H](OC(=O)Nc1ccc(OC(F)F)cc1)C2=O"
answer_label = "inactive"

[[record]]
compound_string = "COc1ccc(O[C@H]2C=C[C@@H](c3ccccc3)O[C@H]2CON=C(C)CCN2CCCc3nc(C)c(C)cc32)cc1"
answer_label = "active"

[[record]]
compound_string = "COC(=O)[C@H](Cc1ccccc1)NC(=O)O[C@@H]1C(=O)c2cc(OC)ccc2O[C@H]1c1ccc(OC)c(Br)c1"
answer_label = "inactive"


Input: Which outcome was entered for the molecule CC(=O)OC[C@H]1O[C@H](c2cc(C)cc(C)c2)C=C[C@H]1OC(C)=O in this test?
Output: inactive

* * *

assay: qHTS for Inhibitors of Plasmodium falciparum (GB4) proliferation (AID 504315); further: nearly all actives have a fitted effect of over 50% in size; conditions: P. falciparum GB4 in erythrocytes, SYBR Green DNA, 72 h; series mostly up to 6.7 µM
Results filed as inconclusive are left out. The source made the active and inactive calls. Calls come from the whole dose curve; as a rule, active = well fitted inhibition curve with a large enough effect; inconclusive = small, poorly fitted or top-dose-only effect, or effect the other way; inactive = flat fitted curve, though single readings scatter.
Log the outcome using a class from active, inactive

[[record]]
compound = "C[C@H]1Cc2c(-c3ccccc3)nc3c(c2CO1)CN(C(=O)c1cccnc1)CC3"
answer_label = "inactive"

[[record]]
compound = "C=CCC(O)(C#Cc1ccccc1)c1ccccc1 (stereo unspecified)"
answer_label = "inactive"

[[record]]
compound = "OC[C@H]1O[C@H](c2ccccc2)C=C[C@H]1O"
answer_label = "inactive"

[[record]]
compound = "COC(=O)C1=C(C)N(Cc2ccccc2)C(=NCC2CC2)NC1c1ccccc1 (stereo unspecified)"
answer_label = "active"

[[record]]
compound = "C#CC1(O)C2C=C(OC)C(=O)C1C(c1ccccc1)C2C (stereo unspecified)"
answer_label = "inactive"


--- query ---
Input: Which outcome was entered for the compound C[C@H](NC(=O)N1CCc2nc(-c3ccccc3)c3c(c2C1)CO[C@@H](C)C3)c1ccccc1 in this test?
Output: inactive

* * *

test: SDT Cancer Cell Toxicity qHTS against the NCATS CANVASS Library (AID 1347365); conditions: SDT dog glioma viability, ATP luminescence, 72 h; series mostly up to 46.1 µM; further: nearly all actives have a fitted effect of over 60% in size
Records with an inconclusive call do not appear. The source made the active and inactive calls. Calls come from the whole dose curve; as a rule, active = well fitted cell-killing curve with a large enough effect; inconclusive = small, poorly fitted or top-dose-only effect; inactive = flat fitted curve, though single readings scatter.
Log the outcome using a class from class 1 (active), class 0 (inactive)

Take a look at these entries with their results.
[[record]]
compound = "CCC1=C2CCCN3C(=O)O[C@H]([C@H]1OC(C)=O)[C@H]23"
answer_label = "class 0"

[[record]]
compound = "CC(O)/C=C/C1(O)C(C)(C)CC(O)CC1(C)O (centres undefined)"
answer_label = "class 0"

[[record]]
compound = "C=C[C@@]1(C)CC[C@@H]([C@H](C)C(=O)/C=C/C(C)C)O1"
answer_label = "class 0"


Input: Which outcome was entered for the compound C/C1=C\CC(=O)/C=C/C=C\c2csc(n2)[C@@H](C)NC(=O)C[C@@](S)([C@@H](C)C(=O)O)CC1 in this test?
Output: class 0

Input: Now try Cc1cc(O)cc2oc(C[C@H](C)O)cc(=O)c12 .
Output: class 1

Input: Now try C[C@@H]1C(=O)[C@]23CC[C@H]1C[C@]21O[C@H]2C(C)(C)C=CC(=O)[C@]23COC1=O .
Output: class 0

Input: Now try C=C[C@]1(C)CC[C@@H]([C@H](C)C(=O)/C=C/C(C)C)O1 .
Output: class 0

Input: Now try CC12C[C@]3(O)O[C@@H](O1)[C@]1(COC(=O)c4ccccc4)[C@@H]3CC21OC1OC(CO)C(O)C(O)C1O (some centres undefined) .
Output: class 0

Input: Now try C[C@@H]1C(=O)[C@]23CC[C@H]1C[C@]21O[C@H]2C(C)(C)C=CC(=O)[C@@]23COC1=O .
Output: class 0

* * *

test: qHTS for Antimalaria activity screened against the NCATS CANVASS Library (AID 1347380); further: nearly all actives have a fitted effect of over 40% in size; conditions: P. falciparum Dd2 growth, SYBR Green fluorescence, 72 h; series mostly up to 28.7 µM
Records with an inconclusive call do not appear. Active and inactive are the calls of the source. Calls come from the whole dose curve; as a rule, active = well fitted cell-killing curve with a large enough effect; inconclusive = small, poorly fitted or top-dose-only effect, or effect the other way; inactive = no such curve, though single readings can be large or run the other way. Numbered stars: 1 amine (or outer) side, 2 acyl side, 3 side chain; on linkers, the order of the positions; unused ones are H or OH. Bridge positions count the residues as written; N and C are the ends. Square brackets hold non-standard residues; d marks the D form. Peptide text beside a SMILES is read from it. ξ: configuration not given here. Phe(3R-OH) = O=C([C@@H](N[*:1])[C@H](O[*:3])c1ccccc1)[*:2]; NMeTrp(4-OMe) = CN[C@@H](Cc1c[nH]c2cccc(OC)c12)C(=O)O; ξThr(3R)(O-yl) = C[C@@H](O[*:3])C(N[*:1])C(=O)[*:2]; NMeThr(3ξ) = CN[C@H](C(=O)O)C(C)O; NMeL = CN[C@@H](CC(C)C)C(=O)O; NMeV = CN[C@H](C(=O)O)C(C)C; ξIle = CC[C@H](C)C(N)C(=O)O; ξV = CC(C)C(N)C(=O)O
Log the outcome using a class from active, inactive

Take a look at these entries with their results.
[[record]]
molecule = "Oc1ccc([C@H]2Oc3ccc(/C=C/c4cc(O)cc(O)c4)cc3C2c2cc(O)cc(O)c2)cc1 (some centres not stated)"
answer_label = "active"

[[record]]
molecule = "COc1cc(/C=C/C(=O)O)ccc1O"
answer_label = "active"

[[record]]
molecule = "Cc1cc(O)cc2oc(C[C@H](C)O)cc(=O)c12"
answer_label = "inactive"

[[record]]
molecule = "C[C@@]12C[C@@H](C[C@H]3C(=O)O[C@@H](c4ccoc4)[C@H](OC(=O)c4ccccc4)[C@@H]31)OC2=O"
answer_label = "inactive"


Input: Which outcome was entered for the molecule C/C(=C\[C@H](C)C(=O)CCCC1CC(=O)NC(=O)C1)C(O)[C@@H](C)[C@H](O)C/C=C/CC/C=C/C(=O)O (some centres not stated) in this test?
Output: inactive

Input: Now try CO[C@@H]1C[C@@H](C[C@H]2CC[C@H](C)[C@H]([C@@H](C)C(=O)O)O2)O[C@]2(O[C@](C)([C@H]3CC[C@@](C)([C@@H]4O[C@@H]([C@H]5O[C@](C)(O)[C@H](C)C[C@@H]5C)C[C@@H]4C)O3)C[C@H]2C)[C@@H]1C .
Output: active

Input: Now try CCC[C@@H](C)/C=C(\C)[C@H](O)[C@H](C)/C=C/CC[C@@H](O)[C@H](C)[C@H](O)[C@H](C)[C@H](O)[C@H](C)[C@H]1O[C@H]([C@H](C)C(=O)O)CC[C@@H]1C .
Output: active

Input: Now try COc1ccc2cc(NC(=O)C3=NO[C@H]4[C@H](O)C=C[C@@H](Cl)[C@@]4(O)C3)c(=O)oc2c1OC .
Output: inactive

Input: Now try CCC1=C2CCCN3C(=O)O[C@H]([C@H]1OC(C)=O)[C@H]23 .
Output: active

Input: Now try C[C@@H](O)[C@H]1OC(=O)C=C2[C@]3(C)[C@H]4[C@H](OC(=O)[C@@]4(C)[C@@H](O)[C@H]4O[C@H]43)[C@H]3O[C@@]231 .
Output: active

Input: Now try C/C1=C\CC(=O)/C=C/C=C\c2csc(n2)[C@@H](C)NC(=O)C[C@@](S)([C@@H](C)C(=O)O)CC1 .
Output: inactive

Input: Now try CC[C@H](C)C(NC(=O)[C@@H](NC)C(C)C)C(=O)NC1C(=O)N(C)[C@@H](C(C)O)C(=O)N[C@@H](C(C)C)C(=O)N(C)[C@@H](CC(C)C)C(=O)NC(C(C)C)C(=O)N(C)[C@@H](C(C)C)C(=O)N(C)[C@@H](Cc2c[nH]c3cccc(OC)c23)C(=O)N[C@@H](C(C)C)C(=O)N[C@@H]([C@H](O)c2ccccc2)C(=O)N[C@@H](C(C)C)C(=O)O[C@@H]1C (stereo partly drawn) (H-[NMeV][ξIle][ξThr(3R)(O-yl)][NMeThr(3ξ)]V[NMeL][ξV][NMeV][NMeTrp(4-OMe)]V[Phe(3R-OH)]V; ester 3-C) .
Output: active

// data source = PubChem BioAssay (NCATS)
